B1: TPR t1 (parent)
chain: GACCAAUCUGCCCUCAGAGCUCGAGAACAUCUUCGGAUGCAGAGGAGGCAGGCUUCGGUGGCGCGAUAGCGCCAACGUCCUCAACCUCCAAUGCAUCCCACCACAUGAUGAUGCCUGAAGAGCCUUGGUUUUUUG

# Variants of: B1
# ASSAY SUMMARY: polymerase ribozyme fitness, log enrichment relative to wild type (log ratio); higher = more active; in vitro selection for triplet polymerase activity
PROPERTY MEASURED: polymerase ribozyme fitness (log ratio)
Answer using only a numeral; do not append any unit.

For GACCAAUCUGCCCUCAGAGCUCGAGAACAUCUUCGGAUGCAGAGGAGGCAGGCUUCGGUGGCCCGAUAGCGUCAACGUCCUCAACCUCCAAUGCAUCCCACCACAUAAUGAUGCCUGAAGAGCUUUGGUUUUUUG [G63C C72U G107A C124U] , write its polymerase ribozyme fitness (log ratio).
-6.17

For GGCCAAUCUGCCCUCAGAGUUCGAGAACAUCUUCGGAUGCAGAGGAGGCAGGCUUCGGUGGCGCGAUAGCGCCAACGUCCUCAACCUCCAAUGCAUCCCACCACAUGAUGAUGCCUGAAGAGCCUUGGUUUUUUG [A2G C20U] , write its polymerase ribozyme fitness (log ratio).
-1.26

For GACCAAUCUUCCCUCAGUGCUCGAGAACAUCUUCGGAUGCAGAGGAGGCAGGCUUCGGUGGCGCGAUAGUGCCAACGUCCUCAACCUCCAAUGCAUCCCACCACAUGAUGAUGCCUGAAGAGCCUUGGUUUUUUG [G10U A18U C70U] , write its polymerase ribozyme fitness (log ratio).
-4.05
